These entries and their values trace back to patent US20140056903A1.

# target of assay: T1, human GFRα3 expressed with a C-terminal myc-myc-hexahistidine tag (human, UniProt O60609 32-374, biotinylated (sites not given) in ELISA format 2 and in the Octet cross-competition; not in SPR)
# T1 construct: also called hGFRα3-mmh; hGFRα3-mmH
# T1 sequence (O60609 other isoform, or with tags, fused parts or gaps limits assumed): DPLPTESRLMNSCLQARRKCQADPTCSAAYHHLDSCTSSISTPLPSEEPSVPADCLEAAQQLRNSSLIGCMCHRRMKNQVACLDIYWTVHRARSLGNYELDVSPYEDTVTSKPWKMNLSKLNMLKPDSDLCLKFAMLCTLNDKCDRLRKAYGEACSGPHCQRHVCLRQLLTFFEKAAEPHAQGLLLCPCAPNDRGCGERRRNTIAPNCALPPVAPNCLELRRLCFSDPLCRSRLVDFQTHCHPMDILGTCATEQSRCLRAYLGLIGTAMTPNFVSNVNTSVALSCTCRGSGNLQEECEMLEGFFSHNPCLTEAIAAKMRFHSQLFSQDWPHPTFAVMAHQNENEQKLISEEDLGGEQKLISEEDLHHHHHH
# assay remarks: SPR, Ab captured, 25C
# Excerpt: […]
Overview of recorded koff for various binders
observed property: koff

INSERT INTO results (binder, observed_property, measured_value) VALUES
  ('H4H2364S (antibody, human IgG4, V domains shown, human IgG4 Fc (H4H)) VH: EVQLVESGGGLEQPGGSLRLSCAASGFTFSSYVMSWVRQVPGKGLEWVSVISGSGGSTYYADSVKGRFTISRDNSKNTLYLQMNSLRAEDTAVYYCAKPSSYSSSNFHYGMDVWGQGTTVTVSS VL: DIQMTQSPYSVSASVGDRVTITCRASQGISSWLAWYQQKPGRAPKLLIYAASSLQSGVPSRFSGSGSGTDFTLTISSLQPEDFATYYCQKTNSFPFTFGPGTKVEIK', 'koff', '3.67e-05 s⁻¹'),
  ('H4H2293P (antibody, human IgG4, V domains shown, human IgG4 Fc (H4H)) VH: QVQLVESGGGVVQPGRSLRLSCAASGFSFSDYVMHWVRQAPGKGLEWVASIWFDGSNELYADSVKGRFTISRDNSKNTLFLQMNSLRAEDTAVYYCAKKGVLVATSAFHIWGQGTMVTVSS VL: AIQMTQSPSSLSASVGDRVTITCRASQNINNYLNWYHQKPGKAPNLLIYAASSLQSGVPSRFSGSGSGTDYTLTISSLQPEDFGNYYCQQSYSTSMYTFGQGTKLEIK', 'koff', '0.000127 s⁻¹'),
  ('H4H2243N2 (antibody, human IgG4, V domains shown, human IgG4 Fc (H4H)) VH: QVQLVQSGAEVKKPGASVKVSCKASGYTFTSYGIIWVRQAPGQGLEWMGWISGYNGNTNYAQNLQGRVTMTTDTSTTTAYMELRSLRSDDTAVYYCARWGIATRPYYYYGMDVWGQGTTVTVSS VL: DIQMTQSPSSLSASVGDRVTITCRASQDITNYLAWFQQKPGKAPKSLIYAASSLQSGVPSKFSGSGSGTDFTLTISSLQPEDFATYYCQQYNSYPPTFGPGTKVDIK', 'koff', '0.00078 s⁻¹'),
  ('H4H2354S (antibody, human IgG4, V domains shown, human IgG4 Fc (H4H); also called H4H2354S-1) VH: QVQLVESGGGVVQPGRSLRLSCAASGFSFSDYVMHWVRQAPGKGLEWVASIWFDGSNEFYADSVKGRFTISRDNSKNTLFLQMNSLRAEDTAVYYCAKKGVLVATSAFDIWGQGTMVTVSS VL: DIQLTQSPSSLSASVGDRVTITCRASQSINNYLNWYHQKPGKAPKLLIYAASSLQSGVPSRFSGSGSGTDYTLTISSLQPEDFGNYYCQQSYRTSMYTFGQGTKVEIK', 'koff', '0.00011 s⁻¹'),
  ('H1M2236N (antibody, V domains shown, chimeric, human variable and mouse constant domains (H1M)) VH: EVQLLESGGNLVQPGGSLRLSCAASGFTFSSYAMTWVRQAPGKGLEWVSTISGSGTSTYYADSVKGRFTISRDNSRDTVFLQMNSLRAEDTAVYYCSKPSALRFLHWLCMDVWGQGTLVTVSS VL: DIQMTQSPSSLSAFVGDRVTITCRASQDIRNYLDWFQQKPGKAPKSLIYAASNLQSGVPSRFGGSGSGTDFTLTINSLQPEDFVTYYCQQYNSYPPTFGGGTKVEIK', 'koff', '0.000208 s⁻¹');
